Hi there, I'd appreciate the recorded MIC for every entry that follows.
System: Salmonella enterica ATCC 10428
Numbers only, in µg/mL.

Before answering, review these 5 worked examples.
Compound | MIC, µg/mL
COc1ccc(CNC(=O)c2cc(O)c3cc(OC)cc(OC)c3c2)cc1 [6a] | 64
O=C(O)c1cn(C2CC2)c2cc(N3CCNCC3)c(F)cc2c1=O [Cipro, ciprofloxacin, reference compound] | 8
COc1cc(OC)c2c(O)cc(C(=O)NCc3ccc(Br)cc3)cc2c1 [7b] | 32
COc1cc(OC)c2c(O)cc(C(=O)NCc3ccc(C)cc3)cc2c1 [5b] | 32
COc1cc(OC)c2c(O)cc(C(=O)NCc3ccc(Cl)cc3)cc2c1 [8b] | 16

As a next step, examine the compound that follows.
Lab note: Salmonella enterica ATCC 10428 assay, enter MIC for COc1ccc(CNC(=O)c2cc(O)c3c(OC)cc(OC)cc3c2)cc1 [6b] here
32
